Test system: AGS cells
experiment notes: Apoptosis (sub-G1) by flow cytometry
Type: cell-based, human
measurement context: 50 μM, 24 h, mean ± SE
measured parameter: apoptotic ratio (%)
Write the answer as a number in %, unit excluded.

Exercise: For the compound CC(=O)OCCC[C@H](C)C1=C[C@@H]2[C@H](C)C(=O)O[C@@H]2C[C@@]1(C)O [Compound 2, neobritannilactone A] , give its reported apoptotic ratio.
Solution: 9.41

Exercise: Give apoptotic ratio for the following compound: C=C1C(=O)OC2CC(C)=C(C(C)CCCOC(C)=O)C(OC(C)=O)C12 (stereo not drawn) [Compound 7, 1,6-O,O-diacetylbritannilactone]
Solution: 10.79

Exercise: State its apoptotic ratio: C=C1C(=O)O[C@H]2/C=C(\C)CC/C=C(\C)C[C@H](OC(C)=O)[C@@H]12 [Compound 4, acetyl neobritannilactone B]
Solution: 13.64
